- experimentalDetails: liver-stage malaria parasite growth inhibition, primary screen, cell-based, HepG2, luciferase luminescence, HepG2 viability (AID 624349);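 also: 100% = mean of DMSO negative control wells on the same plate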
- testSettings: P. berghei liver stage in HepG2, luciferase luminescence, concentration not given here; measured here: HepG2 viability without parasites
Measured viability of individual entries
assayReadout: viability (%)

1) CC1=CC(=O)C2=C(C)C[C@H](O)[C@@H]3[C@H](OC(=O)[C@H]3C)[C@@H]12 = 100
2) CC1=C2CCC3C(CC[C@]4(C)C(=O)CCC34)[C@@]2(C)CCC1=O (some centres undefined) = 85.7
3) O=c1cccc2n1C[C@H]1CNCC2C1 = 103
4) CS(=O)(=O)Nc1ccc(Cc2noc(-c3ccc4[nH]cc(CCN)c4c3)n2)cc1 = 68.7
5) O1[As]2O[As]3O[As]1O[As](O2)O3 = 103
6) NC1=NC(=O)C(c2ccccc2)O1 (centres undefined) = 79.6
7) CCC1(C)CC(=O)NC(=O)C1 = 101
8) O=S(=O)(O)c1cc(O)ccc1O = 69.3
9) COP(=S)(OC)Oc1cc(Cl)c(Cl)cc1Cl = 108
10) CN1C(=O)CN=C(c2ccccc2)c2cc(Cl)ccc21 = 81.8
11) CCn1cnc2c(Nc3cccc(Cl)c3)nc(N[C@@H]3CCCC[C@@H]3N)nc21 = 108
12) CN[C@@H]1C[C@@H](c2ccc(Cl)c(Cl)c2)c2ccccc21 = 29.3
13) CN1Cc2c(ccc3c2OCO3)[C@@H]2[C@H]1c1cc3c(cc1C[C@@H]2O)OCO3 = 77.6
14) COc1cc2c(c(OC)c1OC)-c1ccc(O)c(=O)cc1C(N)CC2 (centres undefined) = 94.7
15) COc1ccc2c(c[n+](C)c3c4cc5c(cc4ccc23)OCO5)c1OC = 157
16) COc1cc2c(cc1O)C1Cc3ccc(OC)c(O)c3CN1CC2 (centres undefined) = 69.6
17) C[C@H]1CC[C@@H]2[C@@H](C)[C@H]3[C@H](C[C@H]4[C@@H]5CC=C6C[C@@H](O[C@@H]7O[C@H](CO)[C@H](O)[C@H](O[C@@H]8O[C@H](CO)[C@@H](O)[C@H](O)[C@H]8O)[C@H]7O[C@@H]7O[C@@H](C)[C@H](O)[C@@H](O)[C@H]7O)CC[C@]6(C)[C@H]5CC[C@]34C)N2C1 = 114
18) CN1C[C@H](C(=O)N[C@]2(C)O[C@@]3(O)[C@@H]4CCCN4C(=O)[C@H](Cc4ccccc4)N3C2=O)C=C2c3cccc4[nH]cc(c34)C[C@H]21 = 106
19) CC1OC(OC2/C=C/C=C/C=C/C=C/CC/C=C/C=C/[C@H](C)[C@@H](O)[C@@H](C)[C@H](C)OC(=O)CC(O)CC(O)CC(O)CCC(O)C(O)C[C@]3(O)CC(O)C(C(=O)O)C(C2)O3)C(O)C(N)C1O (some centres undefined) = 74
